- System: SK-MEL-28 melanoma
- experiment: NCI tumour cell line growth inhibition, 48 h
experimental-endpoint: TGI (µM)
Quick note: give the figure in µM, leave out the unit.

Below: 3 molecules and their reported TGI.
[
  {
    "molecule": "OC1COC(n2c3ccc(Br)cc3c3ccc4c5ccccc5[nH]c4c32)C(O)C1O (centres undefined)",
    "tgt": "SK-MEL-28 melanoma",
    "experimental-endpoint": "TGI",
    "reported": 28.9
  },
  {
    "molecule": "Cn1c2ccccc2c(=NNc2ccc(C(=O)O)cc2)c2ccccc21",
    "tgt": "SK-MEL-28 melanoma",
    "experimental-endpoint": "TGI",
    "reported": 60.7
  },
  {
    "molecule": "COc1cc(Cn2c3c(c4c(C(=O)NCCN(C)C)c(O)ccc42)C(=O)c2ccccc2C3=O)cc(OC)c1",
    "tgt": "SK-MEL-28 melanoma",
    "experimental-endpoint": "TGI",
    "reported": 3.43
  }
]

// next entry
q: If you can, please state the reported TGI value of `CN(C)CCOc1ccc2c(c1)C/C(=C/c1ncc([N+](=O)[O-])n1C)C2=O` .
a: 33.4

###

- System: SW-620 colon
- experiment: NCI tumour cell line growth inhibition, 48 h
experimental-endpoint: GI50

Below: 2 molecules and their reported GI50.
[
  {
    "molecule": "CN(C)c1ccc2cc(-c3ccccc3F)c(N)nc2c1",
    "GI50": "636 nM"
  },
  {
    "molecule": "CC[C@H](CC#N)OC(=O)N[C@@H](C)c1cccc(NC(=O)Nc2ccc(-c3cnco3)c(OC)c2)c1",
    "GI50": "22.9 nM"
  }
]

q: Look up GI50 with SW-620 colon for this molecule: `Nc1cc(N)c(N)cc1N`
a: 3090 nM

q: Look up GI50 with SW-620 colon for this molecule: COc1c(N2CCN(CN3C(=O)C(=Nc4ccc(S(=O)(=O)Nc5ncccn5)cc4)c4ccccc43)C(C)C2)c(F)cc2c(=O)c(C(=O)O)cn(C3CC3)c12 (centres undefined)
a: 10800 nM

###

- Test system: SK-MEL-5 melanoma
- experiment: NCI tumour cell line growth inhibition, 48 h
Item-by-item account of TGI

Below: 3 molecules and their reported TGI.
[
  {
    "molecule": "C[C@H](O)C1CC(Cn2nnc3c(N)ncnc32)C1(C)C (stereo partly drawn)",
    "TGI": "> 100 µM"
  },
  {
    "molecule": "COc1ccc(NC(=O)c2cc(OC)c(OC)c(OC)c2)cc1",
    "TGI": "> 80.6 µM"
  },
  {
    "molecule": "Cn1c(-c2ccc(/C=N\\N3CCN(/N=C/c4ccc(-c5c[n+]6ccccc6n5C)cc4)CC3)cc2)c[n+]2ccccc12",
    "TGI": "> 100 µM"
  }
]

q: If you can, please state the reported TGI value of O=C(CC(C(=O)c1ccoc1)c1ccco1)c1ccco1 (stereo not drawn) .
a: > 100 µM

q: If you can, please state the reported TGI value of CC1(C)Oc2ccc3c(=O)cc(-c4ccc(F)cc4)oc3c2C1C(=O)O (stereo not drawn) .
a: > 100 µM

q: If you can, please state the reported TGI value of `COc1cc(/C=C/C(=O)c2sc(Nc3ccccc3)nc2C)ccc1O` .
a: > 100 µM

q: If you can, please state the reported TGI value of `Cc1cc(=O)oc2cc3c(cc12)Oc1ccccc1O3` .
a: > 100 µM

q: If you can, please state the reported TGI value of CCOC(=O)C(NC(=O)Nc1ccc(Cl)c(Cl)c1)C(F)(F)F (stereo not drawn) .
a: > 100 µM

q: If you can, please state the reported TGI value of `Brc1ccccc1-c1ncc(-c2ccccc2)o1` .
a: 34.5 µM

q: If you can, please state the reported TGI value of `O=c1oc2ccccc2n1CCN1CCCCC1` .
a: > 100 µM

q: If you can, please state the reported TGI value of CC12CCC(=O)C=C1CCC1C2C(O)CC2(C)C(c3csc(N)n3)CCC12 (stereo not drawn) .
a: > 100 µM

q: If you can, please state the reported TGI value of `COc1ccc(CCNC(=O)Cc2cc(OC)c(OC)cc2CO)cc1OC` .
a: > 100 µM

q: If you can, please state the reported TGI value of `O=C(CSC(=S)N1CCOCC1)Nc1nc2c(s1)CCCC2` .
a: > 100 µM

q: If you can, please state the reported TGI value of `COCCOCCOC1=C(Cl)C(=O)c2c(O)ccc(O)c2C1=O` .
a: 3.79 µM

q: If you can, please state the reported TGI value of `COc1cc2c(c(OC)c1OC)-c1ccc(SC)cc1[C@H](OC(=O)c1ccccc1)CC2` .
a: 1.21 µM
